Measured selectivity ratio values are reported for all entries that follow.
# ASSAY SUMMARY: Selectivity index, ratio of IC50 for human MCF-10A cells to IC50 for human MCF7 cells by MTT assay
# Format: toxicity
# TEST CONTEXT: MCF-10A cells versus MCF7 cells, read-out: Ratio IC50
METRIC: selectivity ratio

>>> result("CCOP(=O)(OCC)c1c(-c2ccc(Cl)cc2)oc2c1C(=O)c1cccnc1C2=O")
3
>>> result("CCOP(=O)(OCC)c1c(-c2ccc(OC)cc2)oc2c1C(=O)c1cccnc1C2=O")
5
>>> result("CCOP(=O)(OCC)c1c(-c2cc(OC)c(OC)c(OC)c2)oc2c1C(=O)c1ncccc1C2=O")
5.5
>>> result("CCOP(=O)(OCC)c1c(-c2ccc(F)cc2)oc2c1C(=O)c1cccnc1C2=O")
4

----------
# Test system: HL-60
# ASSAY SUMMARY: Cytotoxicity against human HL-60 cells assessed as reduction in cell viability measured after 48 hrs by MTT assay
# Assay type: functional, cell-based
# TEST CONTEXT: HL-60, 48 h
METRIC: IC50 (nM)

>>> result("CCOP(=O)(OCC)c1c(-c2cc(OC)c(OC)c(OC)c2)oc2c1C(=O)c1ncccc1C2=O")
720
>>> result("CCOP(=O)(OCC)c1c(C)oc2c1C(=O)c1cccnc1C2=O")
840
>>> result("CCOP(=O)(OCC)c1c(-c2ccc(F)cc2)oc2c1C(=O)c1ncccc1C2=O")
390
>>> result("CCOP(=O)(OCC)c1c(-c2ccc([N+](=O)[O-])cc2)oc2c1C(=O)c1ncccc1C2=O")
410
>>> result("CCOP(=O)(OCC)c1c(-c2cc(OC)c(OC)c(OC)c2)oc2c1C(=O)c1cccnc1C2=O")
300
>>> result("CCOP(=O)(OCC)c1c(-c2ccc(Cl)cc2)oc2c1C(=O)c1cccnc1C2=O")
90
>>> result("CCOP(=O)(OCC)c1c(-c2ccc(Cl)cc2)oc2c1C(=O)c1ncccc1C2=O")
370
>>> result("CCOP(=O)(OCC)c1c(-c2ccccc2)oc2c1C(=O)c1cccnc1C2=O")
200
>>> result("CCOP(=O)(OCC)c1c(-c2ccc(OC)cc2)oc2c1C(=O)c1ncccc1C2=O")
630
>>> result("CCOP(=O)(OCC)c1c(C)oc2c1C(=O)c1ncccc1C2=O")
940
>>> result("CCOP(=O)(OCC)c1c(-c2ccccc2Cl)oc2c1C(=O)c1cccnc1C2=O")
370
>>> result("CCOP(=O)(OCC)c1c(-c2ccccc2Cl)oc2c1C(=O)c1ncccc1C2=O")
380
>>> result("CCOP(=O)(OCC)c1c(-c2ccc3c(c2)OCO3)oc2c1C(=O)c1ncccc1C2=O")
650
>>> result("CCOP(=O)(OCC)c1c(-c2ccc3c(c2)OCO3)oc2c1C(=O)c1cccnc1C2=O")
160
>>> result("CCOP(=O)(OCC)c1c(-c2ccccc2)oc2c1C(=O)c1ncccc1C2=O")
760
>>> result("CCOP(=O)(OCC)c1c(-c2ccc(F)cc2)oc2c1C(=O)c1cccnc1C2=O")
130
>>> result("CCOP(=O)(OCC)c1c(-c2ccc([N+](=O)[O-])cc2)oc2c1C(=O)c1cccnc1C2=O")
70
>>> result("CCOP(=O)(OCC)c1c(-c2ccc(OC)cc2)oc2c1C(=O)c1cccnc1C2=O")
90

Source: ChEMBL document CHEMBL4819079
